The molecules listed here are annotated with their EC50.
# Tested on: Plasmodium berghei
# measurement-description: Antimalarial activity against Plasmodium berghei infected in human HepG2 cells after 44 hrs by luciferase assay
# Type: functional, cell-based
# applied-conditions: HepG2, 44 h
Response body: numeric value in nM, unit text excluded.

>  <input-smiles>
COC(=O)c1c[nH]c2cc(CN3CCN(c4ccc(F)cc4)CC3)ccc2c1=O

>  <unit-spec>
nM

>  <test-result>
1.1

$$$$

Query molecule follows.
Task item: Endpoint output: EC50 of `COC(=O)c1c[nH]c2cc(CN3CCN(c4ccc(C(F)(F)F)cc4)CC3)c(OC)cc2c1=O` . Value?
Reply: 9.6
